B1: ZNF8 (parent)
chain: SLGRHKRTHTGEKPYTCSVCGKSF

Variants of: B1
Experiment: protein stability index of a GFP-peptide fusion (GPS, HEK-293T) (PSI 1-6); higher = more stable;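 note: lentivirally expressed fusions sorted by FACS into six bins by GFP to DsRed ratio, PSI derived from sequencing read proportions per bin multiplied by bin number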
Conditions: c terminus: a fixed tail appended
I'd appreciate it if you could supply protein stability index values for the items below.

Solved cases below.
| mutant.code | data.value |
| --- | --- |
| K6F | 1.82 |
| K6Y | 3.23 |
| T10I | 2.77 |
| S1V | 2.58 |
| F24R | 2.92 |
| E12S | 2.64 |
| T16K | 2.68 |
| V19L | 2.29 |

Respectfully, I request protein stability index for each entry included below.
1. V19I
2. R7L

Marked response:
2.79
2.66

Respectfully, I request protein stability index for each entry included below.
1. G3H
2. G21T
3. K13E
4. C20R
5. G21P
6. R7Q
7. T16S

Marked response:
4.17
3.14
2.39
2.98
3.12
2.98
2.51

Respectfully, I request protein stability index for each entry included below.
1. T8C
2. K13T
3. C17T
4. V19G
5. E12N

Marked response:
1. 2.45
2. 2.92
3. 3.19
4. 2.7
5. 3.1
